tested on: HeLa, A549, U2OS, and MCF-7 cell lines; experiment: MTT cytotoxicity assay, summary over the four cell lines; format: cell-based, human; details: 72 h, mean of HeLa, read-out: average IC50 value in the four cell lines tested
property: pIC50
Remember, pIC50 is on a log scale: it is -log10 of the molar concentration.

Reported pIC50 for O=[N+]([O-])[O-].[NH3+][Pt-2]1([NH3+])[O]C(C(F)(F)F)=CC(c2ccccc2)=[O+]1 (stereo not shown) [Compound 4, [Pt(tfbz)(NH3)2](NO3)] was 5.59

----------
test system: U2OS (human osteosarcoma); assay: MTT cytotoxicity assay, U2OS; assay type: cell-based; conditions: continuous 72 h
property: IC50 (µM)
Your answer is read as µM, so omit the unit and give the number.

O=[N+]([O-])[O-].[NH3+][Pt-2]1([NH3+])[O]C(c2ccccc2)=CC(c2ccccc2)=[O+]1 (stereo not drawn) [Compound 5, [Pt(dbm)(NH3)2](NO3)] | 2.7
O=[N+]([O-])[O-].[NH3+][Pt-2]1([NH3+])[O]C(C(F)(F)F)=CC(c2ccccc2)=[O+]1 (stereo not drawn) [Compound 4, [Pt(tfbz)(NH3)2](NO3)] | 1.6
CC1=CC(c2ccccc2)=[O+][Pt-2]([NH3+])([NH3+])[O]1.O=[N+]([O-])[O-] (stereo not drawn) [Compound 3, [Pt(bzac)(NH3)2](NO3)] | 8

// assay U2OS (human osteosarcoma), entry CC1=CC(C)=[O+][Pt-2]([NH3+])([NH3+])[O]1.CC1=CC(C)=[O+][Pt-2]([NH3+])([NH3+])[O]1.O=S(=O)([O-])[O-] (stereo not drawn) [Compound 1, [Pt(acac)(NH3)2](SO4)0.5] , IC50 value = 24

Summary line: N.N.[Cl][Pt][Cl] [cisplatin, cis-diamminedichloroplatinum(II), reference compound] , U2OS (human osteosarcoma), reported IC50 = 5

Log: U2OS (human osteosarcoma), compound CC1=CC(C(F)(F)F)=[O+][Pt-2]([NH3+])([NH3+])[O]1.CC1=CC(C(F)(F)F)=[O+][Pt-2]([NH3+])([NH3+])[O]1.O=S(=O)([O-])[O-] (stereo not drawn) [Compound 2, [Pt(tfac)(NH3)2](SO4)0.5] , IC50 = 4.1

----------
system: nuclear DNA of HeLa cells; experiment: Intracellular DNA platination in HeLa cells by GFAAS; type: cell-based, human; conditions: 100 μM for 4 h, then 16 h platinum-free medium
This listing pairs molecules with measured Pt/DNA.
Write it as a number; the unit pmol/µg goes unstated.

CC1=CC(C)=[O+][Pt-2]([NH3+])([NH3+])[O]1.CC1=CC(C)=[O+][Pt-2]([NH3+])([NH3+])[O]1.O=S(=O)([O-])[O-] (stereo not drawn) [Compound 1, [Pt(acac)(NH3)2](SO4)0.5] | 0.063
CC1=CC(c2ccccc2)=[O+][Pt-2]([NH3+])([NH3+])[O]1.O=[N+]([O-])[O-] (stereo not drawn) [Compound 3, [Pt(bzac)(NH3)2](NO3)] | 0.35
CC1=CC(C(F)(F)F)=[O+][Pt-2]([NH3+])([NH3+])[O]1.CC1=CC(C(F)(F)F)=[O+][Pt-2]([NH3+])([NH3+])[O]1.O=S(=O)([O-])[O-] (stereo not drawn) [Compound 2, [Pt(tfac)(NH3)2](SO4)0.5] | 0.30
N.N.[Cl][Pt][Cl] [cisplatin, cis-diamminedichloroplatinum(II), reference compound] | 1.58
O=[N+]([O-])[O-].[NH3+][Pt-2]1([NH3+])[O]C(c2ccccc2)=CC(c2ccccc2)=[O+]1 (stereo not drawn) [Compound 5, [Pt(dbm)(NH3)2](NO3)] | 23

Next up:
# lookup: O=[N+]([O-])[O-].[NH3+][Pt-2]1([NH3+])[O]C(C(F)(F)F)=CC(c2ccccc2)=[O+]1 (stereo not drawn) [Compound 4, [Pt(tfbz)(NH3)2](NO3)] on nuclear DNA of HeLa cells, Pt/DNA = 14

----------
tested on: HeLa cells; assay: Cellular uptake in HeLa cells by GFAAS; assay type: cell-based, human; settings: 10 μM, 4 h exposure
property: HeLa Cellular Uptake
Just the number plus its unit, please.

Known results for compounds:
N.N.[Cl][Pt][Cl] [cisplatin, cis-diamminedichloroplatinum(II), reference compound] | 14 ± 2 ng Pt/10^6 cells
CC1=CC(C)=[O+][Pt-2]([NH3+])([NH3+])[O]1.CC1=CC(C)=[O+][Pt-2]([NH3+])([NH3+])[O]1.O=S(=O)([O-])[O-] (stereo not drawn) [Compound 1, [Pt(acac)(NH3)2](SO4)0.5] | 6 ± 2 ng Pt/10^6 cells
O=[N+]([O-])[O-].[NH3+][Pt-2]1([NH3+])[O]C(C(F)(F)F)=CC(c2ccccc2)=[O+]1 (stereo not drawn) [Compound 4, [Pt(tfbz)(NH3)2](NO3)] | 160 ± 20 ng Pt/10^6 cells
CC1=CC(C(F)(F)F)=[O+][Pt-2]([NH3+])([NH3+])[O]1.CC1=CC(C(F)(F)F)=[O+][Pt-2]([NH3+])([NH3+])[O]1.O=S(=O)([O-])[O-] (stereo not drawn) [Compound 2, [Pt(tfac)(NH3)2](SO4)0.5] | 29 ± 9 ng Pt/10^6 cells
CC1=CC(c2ccccc2)=[O+][Pt-2]([NH3+])([NH3+])[O]1.O=[N+]([O-])[O-] (stereo not drawn) [Compound 3, [Pt(bzac)(NH3)2](NO3)] | 83 ± 8 ng Pt/10^6 cells

Please look at the following compound next.
The recorded HeLa Cellular Uptake for O=[N+]([O-])[O-].[NH3+][Pt-2]1([NH3+])[O]C(c2ccccc2)=CC(c2ccccc2)=[O+]1 (stereo not drawn) [Compound 5, [Pt(dbm)(NH3)2](NO3)] is 520±80 ng Pt/10^6 cells
